Origin of measurements: the supplement of paper PMC10567573

B1: KRT18 (parent)
chain: RVRSLETENRRLESKIREHLEKKG

Variants of: B1
ASSAY SUMMARY: protein stability index of a GFP-peptide fusion (GPS, HEK-293T) (PSI 1-6); higher = more stable;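 also: lentivirally expressed fusions sorted by FACS into six bins by GFP to DsRed ratio, PSI derived from sequencing read proportions per bin multiplied by bin number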
MEASUREMENT SETUP: c terminus: a fixed tail appended
Below, each entry is listed with its recorded protein stability index.
Provide a numeric answer; units are not to be included.

Record excerpt, results attached:
R17T : 5
K22E : 4.86

Exercise: Consider the variant shown here: K23H What is its recorded protein stability index?
Key: 3.96

Exercise: Consider the variant shown here: E21D What is its recorded protein stability index?
Key: 4.98
